# System: A549 NSCLC
# Assay procedure: NCI tumour cell line growth inhibition, 48 h
Recorded metric: TGI

>>> result_value("O=C(c1ccccc1)C(c1ccccc1)C1(O)C(=O)Nc2ccc(Br)cc21 (stereo not drawn)")
"> 100 µM"
>>> result_value("COC(=O)c1cccc(COc2ccc([N+](=O)[O-])cc2Cl)c1")
"> 100 µM"
>>> result_value("COc1ccc(OC/C(N=Cc2cccnc2)=N/NC(=O)c2ccncc2)cc1")
"> 100 µM"
>>> result_value("O=[N+]([O-])c1cnccc1-n1nnc2ccccc21")
"> 90.1 µM"
>>> result_value("CC(C)(C)OC(=O)/C=C/[C@@H](CCC(=O)/C=C/[C@H](/C=C\\CCCC(=O)O)NC1(c2ccccc2)c2ccccc2-c2ccccc21)O[Si](C)(C)C(C)(C)C")
"37.2 µM"
>>> result_value("Cc1cc(NS(=O)(=O)c2ccc(N=Nc3c(Nc4ccccc4)nn(-c4ccc(S(=O)(=O)Nc5ccncn5)cc4)c3C)cc2)no1")
"> 100 µM"
>>> result_value("O=C1CCCC1C(O)(C(F)(F)Cl)C(F)(F)Cl (stereo not drawn)")
"> 10 µM"
>>> result_value("COC(=O)c1cc(OCc2cc(OCc3ccc(Br)cc3)cc(OCc3ccc(Br)cc3)c2)cc(OCc2cc(OCc3ccc(Br)cc3)cc(OCc3ccc(Br)cc3)c2)c1")
"> 100 µM"

---

# Tested on: CCRF-CEM leukemia
# Assay procedure: NCI tumour cell line growth inhibition, 48 h
Label scheme for TGI: lower than 30 µM is not met, 30 µM and above is met.

>>> group("COc1cccc(/C=N/[N-]C(N)=O)c1[O-].[Cu+2].c1ccncc1")
"met"
>>> group("O=C1OCC(CN2CCC(n3c(=O)[nH]c4ccccc43)CC2)=C1c1ccccc1")
"met"
>>> group("COC(=O)/C=C/[C@H]1[C@H](C)N1S(=O)(=O)c1ccc(C)cc1 (stereo not given in full)")
"met"
>>> group("COc1ccc(-n2cc(-c3ccc(F)cc3)[nH]c2=O)cc1OC")
"met"
>>> group("O=c1c(-c2nc3ccccc3[nH]2)cc2ccccc2n1Cc1cn(Cc2ccc(F)cc2)nn1")
"met"
>>> group("ClC1(Cl)C2CCOC21n1cnc2ccccc21 (stereo not given)")
"met"
>>> group("CCOC1=NC(C(F)(F)F)(C(F)(F)F)N=C(/N=C(/N)N(C)C(C(C)C)P(=O)(OC(C)C)OC(C)C)O1 (stereo not given)")
"met"
>>> group("CCN(CC)C(=O)CCNC(C)Cc1c[nH]c2ccccc12 (stereo not given)")
"met"
>>> group("Nc1c(S(=O)(=O)O)cc2c(c1Cl)C(=O)c1ccccc1C2=O")
"met"
>>> group("COc1cc(-c2nc3cc(Cl)c(Cl)cc3[nH]2)ccc1OCC(=O)N=Nc1c(O)[nH]c2ccccc12")
"not met"
>>> group("Cn1c(=O)c2nc3sc4ccccc4c(=N)n3c2n(C)c1=O")
"met"
>>> group("Clc1ccc2c(NCCCNCc3ccc4c(c3)OCO4)ccnc2c1")
"not met"
>>> group("CCCCCCOc1ccc(/C=N/Nc2cc(C)nc3ccc(Br)cc23)cc1")
"not met"
>>> group("OC1/C(=C/c2ccccc2)CNC/C1=C\\c1ccccc1 (stereo not given)")
"met"
>>> group("O=[N+]([O-])C(=C(\\Cl)NCCO)/C(Cl)=C(/Cl)Br")
"not met"
>>> group("Cc1cc(NS(=O)(=O)c2ccc(N=Nc3c(Nc4ccccc4)nn(-c4ccc(S(=O)(=O)Nc5ccncn5)cc4)c3C)cc2)no1")
"met"
>>> group("CCN(CC)CCCNc1c2cc(OC)ccc2nc2cccc([N+](=O)[O-])c12")
"not met"
>>> group("COc1cc(/C=C2\\CCCC3=C2N=C2SC=NN2C3c2cc(OC)c(OC)c(OC)c2)cc(OC)c1OC (stereo not given)")
"met"
>>> group("[B]C(=O)NC(CC(C)C)C(=O)NC1c2ccsc2C(=O)C1O (stereo not given) (tested in a mixture with another compound)")
"met"
>>> group("CCCCCC(=O)OC[n+]1ccc(-c2c(COC(=O)NC(C)C)c(COC(=O)NC(C)C)c3n2CCC3)cc1")
"met"

---

# Tested on: NCI/ADR-RES ovarian
# Assay procedure: NCI tumour cell line growth inhibition, 48 h
Recorded metric: TGI

>>> result_value("Cc1cn(C2CC(/[N+]([O-])=N\\Nc3ccc([N+](=O)[O-])cc3)C(CO)O2)c(=O)[nH]c1=O (stereo not given)")
"> 100 µM"
>>> result_value("CN(C)C=Nc1cccc2c1NSN2")
"> 100 µM"
>>> result_value("O=C(CN1CCOCC1)c1ccc2c(c1)oc(=O)n2CCN1CCCCC1")
"> 100 µM"
>>> result_value("CC1(C)CC(=O)C(/C=N/c2nc(-c3cccc([N+](=O)[O-])c3)cs2)=C(O)C1")
"39.2 µM"
>>> result_value("COC1=C2C[C@](OC)(C#CC=CC#CC2O)CC1(C)C (stereo not given in full)")
"> 100 µM"
>>> result_value("COc1ccc(-c2nn(C(=O)c3cc(OC)c(OC)c(OC)c3)c3cc(N)ccc23)cc1")
"2.28 µM"
>>> result_value("O=C1COCCN1c1ccc(NCc2cn(Cc3ccc(F)cc3)c3ccccc23)cc1")
"45.3 µM"
>>> result_value("CC1=NN(c2cccc(S(=O)(=O)O)c2)C2(C1)SCC(=O)N2c1nc2ccccc2s1 (stereo not given)")
"> 100 µM"
>>> result_value("Cc1ccc(S(=O)(=O)N/N=C2/C3CC4CCC2C4C3)cc1 (stereo not given)")
"> 100 µM"
>>> result_value("COc1ccc(/C=C2/C(=O)C(c3ccccc3)N(c3ccccc3)C2=O)cc1OC (stereo not given)")
"> 10 µM"

---

Reported values of TGI for individual entries
# System: OVCAR-3 ovarian
# Assay procedure: NCI tumour cell line growth inhibition, 48 h
Recorded metric: TGI

>>> result_value("COC(=O)/C=C/[C@H]1[C@H](C)N1S(=O)(=O)c1ccc(C)cc1 (some centres not stated)")
"> 100 µM"
>>> result_value("CCC1(O)CC(c2ccccc2)N(C)C(c2ccccc2)C1 (configuration not stated)")
"> 100 µM"
>>> result_value("Nc1c2c(c(O)c3c1=C(CO)C=N3)=NCCS2=O (configuration not stated)")
"0.986 µM"
>>> result_value("Cc1ccc(S(=O)(=O)N/N=C2/C3CC4CCC2C4C3)cc1 (configuration not stated)")
"> 100 µM"
>>> result_value("CCOC(=O)CCNC(=O)c1cc(C)cc2c1Oc1c(cc(C)cc1C(=O)NCCC(=O)OCC)S2")
"> 100 µM"
>>> result_value("CC(=O)Nc1ccc(C(=O)NN2C(=O)C(Cl)C2/C=C/c2ccccc2)cc1 (configuration not stated)")
"> 100 µM"
>>> result_value("COC(=O)CCC(=O)c1ccc2c(c1)CC1(Cc3ccccc3C1)C2")
"> 100 µM"
>>> result_value("Cc1ccc(Sc2cc([N+](=O)[O-])cc(Sc3ccc(C)cc3)c2Sc2ccc(C)cc2)cc1")
"> 100 µM"
>>> result_value("Nc1c(-c2ccc(-c3c(N)[n+]([O-])c4ccccc4[n+]3[O-])cc2)[n+]([O-])c2ccccc2[n+]1[O-]")
"29.8 µM"
>>> result_value("CCOc1ccnc2c(OC)c(C)c3nc4ccccc4nc3c12")
"> 100 µM"
>>> result_value("O=c1c(Br)ccc(Br)cc1Br")
"2.18 µM"
>>> result_value("COc1ccc2c(c1)cn1c3ccc(OC)cc3[nH]c(=O)c21")
"< 0.024 µM"

---

Listed next: entries and their corresponding TGI.
# Tested on: SF-295 CNS
# Assay procedure: NCI tumour cell line growth inhibition, 48 h
Recorded metric: TGI

>>> result_value("O=c1c2ccc(Br)cc2nc(-c2ccccc2)n1NC1OC(CO)C(O)C(O)C1O (configuration not stated)")
"> 100 µM"
>>> result_value("COc1cc2c(cc1OC)-c1c(c3ccc([N+](=O)[O-])cc3c(=O)n1CCCBr)C2=O")
"> 100 µM"
>>> result_value("COc1ccc(/C=C2/C(=O)C(c3ccccc3)N(c3ccccc3)C2=O)cc1OC (configuration not stated)")
"> 10 µM"
>>> result_value("O=P1(NCCCl)OCCC(OO)N1CCCl (configuration not stated)")
"> 100 µM"
>>> result_value("O=[N+]([O-])c1cc(C2ON=C(c3ccccc3)N2C23CC4CC(CC(C4)C2)C3)ccc1Cl (configuration not stated)")
"> 100 µM"
>>> result_value("COc1ccc(/C=C/C(=O)N[C@@H]2C(=O)N3[C@@H]2SC(C)(C)[C@@H]3C(=O)O)cc1OC")
"> 100 µM"
>>> result_value("CC1(C)CC(=O)C(/C=N/c2nc(-c3cccc([N+](=O)[O-])c3)cs2)=C(O)C1")
"> 100 µM"
>>> result_value("COc1ccccc1N1C(=O)/C(=C\\c2ccccc2)SC1c1cc(OC)c(OC)c(OC)c1 (configuration not stated)")
"> 100 µM"
>>> result_value("CN(C)C=Nc1cccc2c1NSN2")
"> 100 µM"
>>> result_value("COc1ccc(/C=C/c2cnnc3ccccc23)cc1OC")
"> 10 µM"
>>> result_value("C=C(C=O)[C@@H]1CC=C(C=O)CC1")
"97.3 µM"
>>> result_value("COC(=O)C1=C(C(=O)OC)C2CCC1CC2=O (configuration not stated)")
"> 100 µM"
>>> result_value("CC(C)[Si](CC1=CCCCC12C(=O)N(COCC[Si](C)(C)C)c1ccccc12)(C(C)C)C(C)C (configuration not stated)")
"> 100 µM"
>>> result_value("COC(=O)Cc1c(-c2c(CC(=O)OC)c3ccccc3n2C2OC(COC3OC(COC(C)=O)C(OC(C)=O)C(OC(C)=O)C3OC(C)=O)C(O)C(O)C2O)[nH]c2ccccc12 (configuration not stated)")
"> 100 µM"
>>> result_value("O=C1CCCC1C(O)(C(F)(F)Cl)C(F)(F)Cl (configuration not stated)")
"> 10 µM"
>>> result_value("O=C(Nc1ccccn1)c1cc2c(cc1Cl)Sc1nccn1S2(=O)=O")
"> 100 µM"
>>> result_value("COC(=O)c1cccc(COc2ccc([N+](=O)[O-])cc2Cl)c1")
"> 100 µM"
>>> result_value("CCCCCCOc1ccc(/C=N/Nc2cc(C)nc3ccc(Br)cc23)cc1")
"3.2 µM"
>>> result_value("O=C1OC(/C=C/c2ccccc2)C(=O)C1=O (configuration not stated)")
"> 100 µM"
>>> result_value("CC(NC(=O)C1(N)CCCC1)C(=O)O (configuration not stated)")
"> 100 µM"
>>> result_value("COC(=O)CCC(=O)c1ccc2c(c1)CC1(Cc3ccccc3C1)C2")
"> 100 µM"
>>> result_value("CN=C(NC#N)NCc1ccccc1")
"> 100 µM"
